Target: human NRP1 (human, UniProt O14786)
Assay: competition phage ELISA
For each of the binders below, state its pIC50.
Numbers only, as −log10 of the molar value.

The cases that follow already have their pIC50 on record.
YW107.4.63 (antibody, V domains shown) VH: EVQLVESGGGLVQPGGSLRLSCAASGFTFSSYAMSWVRQAPGKGLEWVSQISPAGGYTNYADSVKGRFTISADTSKNTAYLQMNSLRAEDTAVYYCARELPYYRMSKVMDVWGQGTLVTVSS VL: DIQMTQSPSSLSASVGDRVTITCRASQYLSSYLAWYQQKPGKAPKLLIYGASSSESGVPSRFSGSGSGTDFTLTISSLQPEDFATYYCQQYISVPLTFGQGTKVEIKR :: 9.82
YW107.4.38 (antibody, V domains shown) VH: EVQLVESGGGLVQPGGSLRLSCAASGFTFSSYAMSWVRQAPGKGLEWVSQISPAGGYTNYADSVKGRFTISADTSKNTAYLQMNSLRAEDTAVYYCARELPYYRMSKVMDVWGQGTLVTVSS VL: DIQMTQSPSSLSASVGDRVTITCRASQYLSSYLAWYQQKPGKAPKLLIYGASSRASGVPSRFSGSGSGTDFTLTISSLQPEDFATYYCQQYLRSPITFGQGTKVEIKR :: 9.55

Now consider the entry below.
So for YW107.4.78 (antibody, V domains shown) VH: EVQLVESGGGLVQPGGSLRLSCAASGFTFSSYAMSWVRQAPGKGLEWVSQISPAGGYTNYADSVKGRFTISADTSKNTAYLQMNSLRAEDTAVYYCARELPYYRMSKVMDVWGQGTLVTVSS VL: DIQMTQSPSSLSASVGDRVTITCRASQYISSYLAWYQQKPGKAPKLLIYGASSRESGVPSRFSGSGSGTDFTLTISSLQPEDFATYYCQQYLSSPITFGQGTKVEIKR , the logged pIC50 turned out to be 9.52
